- System: BMDCs
- assay_comment: LDH release (lytic cell death, pyroptosis) from LPS-primed BMDCs
- Format: cell-based, mouse
- measurement_parameters: Mus musculus, BMDC, single replicates; compound 50 μM; LPS-primed BMDCs; read-out: LDH release (% of max.)
Measured cytotoxicity at 50 µM by item

molecule	cytotoxicity at 50 µM
CC(C)CC(NC(=O)Nc1cccc(N2CCNC2=O)c1)c1nc(-c2nnc[nH]2)no1 (centres unmarked)	5.64%
O=C(NCc1nc(-c2ccsc2)no1)Nc1cc(Cl)cc(Cl)c1	23.6%
O=C(Nc1ccccc1)Nc1ccc(NC2CCOCC2)cc1	8.41%
CNC(=O)NCc1cccc(NC(=O)Nc2ccccc2)c1	6.46%

Query molecule follows.
May I ask what cytotoxicity at 50 µM has been recorded for `O=C(Nc1ccccc1)Nc1ccc(NC(=O)C(F)F)cc1` ?
11.6%

----------
- System: BMDCs
- assay_comment: LDH release (lytic cell death, pyroptosis) from LPS-primed BMDCs
- Format: cell-based, mouse
- measurement_parameters: Mus musculus, BMDC, 100 μM; individual replicate values; read-out: LDH release (% of max.)
Measured cytotoxicity at 100 µM by item
Just the number please, in %, no unit attached.

Sample answers from the record:
compound	test_target	cytotoxicity at 100 µM / %
O=C(Nc1ccc2ncccc2c1)NC1CCCCC1 [EN11-02, 1-cyclohexyl-3-(quin-olin-6-yl)urea]	BMDCs	10.1
O=C(NCCCc1ccccc1)Nc1ccc2ncccc2c1 [EN11-13]	BMDCs	19.3
O=C(NCCc1ccccc1)Nc1ccc2ncccc2c1 [EN11-07, 1-(2-phenylethyl)-3-(quinolin-6-yl)urea]	BMDCs	11.4
O=C(NCc1ccccc1)Nc1ccc2ncccc2c1 [EN11-16, 1-benzyl-3-(quinolin-6-yl)urea]	BMDCs	14.2

Query compound follows.
Which cytotoxicity at 100 µM is reported with BMDCs for this entry: O=C(NCc1ccccc1)NCc1ccc2ncccc2c1 [EN11-11, 3-benzyl-1-[(quinolin-6-yl)methyl]urea] ?
5.91

----------
- test_target: NLRP3 inflammasome (Mus musculus)
- Construct: endogenous in cells; host or cells: primary mouse bone marrow-derived dendritic cells (BMDCs), LPS-primed
- assay_comment: IL-1β release from LPS-primed BMDCs (ELISA) as readout of NLRP3 inflammasome activation
- Type: cell-based
- measurement_parameters: compound 50 μM; LPS-primed BMDCs
- Protocol: This was tested in cell culture in several different in vitro assays classically used to investigate inflammasome activation. […] Lytic cell death was determined via LDH release. […] For classification of the activity of a given molecule, release of IL-1β was quantified as % of IL-1% of a respective control activator used for the experiment (highlighted in tables with bold letters). […]
measured_parameter: Average IL-1β (ng/mL)
Just the number please, in ng/mL, no unit attached.

Sample answers from the record:
smiles_entry	Average IL-1β / ng/mL
O=C(Nc1ccccc1)Nc1cccc(NC(=O)c2ccoc2)c1	0.176
O=C(Nc1ccccc1)Nc1cccc(NC(=O)C2CCCC2)c1	0.116

Query compound follows.
May I ask what Average IL-1β has been recorded for `COc1ccccc1NC(=O)NCc1nc(-c2ccc(C(F)(F)F)cc2)no1` ?
7.782

----------
- test_target: NLRP3 inflammasome (Mus musculus, UniProt Q8R4B8)
- Construct: endogenous in cells; host or cells: primary mouse bone marrow-derived dendritic cells (BMDCs), LPS-primed
- Sequence (Q8R4B8 whole entry): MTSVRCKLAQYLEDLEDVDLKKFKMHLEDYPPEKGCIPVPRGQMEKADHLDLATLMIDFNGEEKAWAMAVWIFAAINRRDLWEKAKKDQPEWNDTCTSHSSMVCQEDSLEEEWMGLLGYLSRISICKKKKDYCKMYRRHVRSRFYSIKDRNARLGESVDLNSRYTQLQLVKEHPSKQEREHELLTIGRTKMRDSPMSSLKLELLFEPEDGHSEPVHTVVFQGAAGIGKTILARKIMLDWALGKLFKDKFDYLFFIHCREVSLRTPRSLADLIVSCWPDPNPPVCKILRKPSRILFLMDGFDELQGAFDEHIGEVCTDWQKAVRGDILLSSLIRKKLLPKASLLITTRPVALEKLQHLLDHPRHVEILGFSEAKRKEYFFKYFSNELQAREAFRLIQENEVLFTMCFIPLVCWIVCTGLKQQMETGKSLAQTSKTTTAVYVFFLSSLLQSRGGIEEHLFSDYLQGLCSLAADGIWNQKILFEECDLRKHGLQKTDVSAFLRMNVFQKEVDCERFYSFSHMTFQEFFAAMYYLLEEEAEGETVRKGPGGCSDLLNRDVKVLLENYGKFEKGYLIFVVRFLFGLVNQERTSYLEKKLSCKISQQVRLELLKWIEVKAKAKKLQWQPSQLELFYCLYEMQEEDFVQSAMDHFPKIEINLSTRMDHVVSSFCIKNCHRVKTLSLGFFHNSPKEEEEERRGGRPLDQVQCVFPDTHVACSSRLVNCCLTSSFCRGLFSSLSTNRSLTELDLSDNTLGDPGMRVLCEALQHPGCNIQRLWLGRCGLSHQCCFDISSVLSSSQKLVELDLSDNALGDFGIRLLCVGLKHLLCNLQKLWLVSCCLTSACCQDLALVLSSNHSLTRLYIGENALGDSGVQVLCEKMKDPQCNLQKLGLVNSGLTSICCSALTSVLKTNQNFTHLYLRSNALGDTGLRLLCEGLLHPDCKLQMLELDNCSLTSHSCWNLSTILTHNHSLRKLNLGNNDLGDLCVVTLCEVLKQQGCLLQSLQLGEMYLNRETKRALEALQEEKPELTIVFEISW
- assay_comment: IL-1β release from LPS-primed BMDCs (ELISA) as readout of NLRP3 inflammasome activation
- Format: cell-based
- measurement_parameters: 50 μM; EN11 series table
Measured Average IL-1β by item
Just the number please, in ng/mL, no unit attached.

Sample answers from the record:
molecule	test_target	meas_value
O=C(Nc1ccc2ncccc2c1)NC1CCCCC1	NLRP3 inflammasome (Mus musculus, UniProt Q8R4B8)	0.042
O=C(NCc1ccccc1)Nc1ccc2ncccc2c1	NLRP3 inflammasome (Mus musculus, UniProt Q8R4B8)	0.060
O=C(NCCc1ccccc1)Nc1ccc2ncccc2c1	NLRP3 inflammasome (Mus musculus, UniProt Q8R4B8)	0.000
O=C(NCc1ccccc1)NCc1ccc2ncccc2c1 [EN11-11, 3-benzyl-1-[(quinolin-6-yl)methyl]urea]	NLRP3 inflammasome (Mus musculus, UniProt Q8R4B8)	0.014

Query molecule follows.
Which Average IL-1β is reported with NLRP3 inflammasome (Mus musculus, UniProt Q8R4B8) for this entry: `O=C(NCCCc1ccccc1)Nc1ccc2ncccc2c1` ?
0.067

----------
- Test system: BMDCs
- assay_comment: LDH release (lytic cell death, pyroptosis) from LPS-primed BMDCs
- Format: cell-based, mouse
- measurement_parameters: Mus musculus, BMDC, 80 μM; individual replicate values; read-out: LDH release (% of max.)
measured_parameter: cytotoxicity at 80 µM (%)
Just the number please, in %, no unit attached.

compound	meas_value
O=C(Nc1ccccc1)Nc1ccc2ncccc2n1 [JB002, 1-(1,5-naphthyridin-2-yl)-3-phenylurea]	14
COc1ccc(NC(=O)Nc2ccc3ncccc3c2)cc1 [JB010]	38.6
O=C(Nc1ccccc1)Nc1ccc2ncc(Br)cc2c1 [JB004, 1-(3-bromoquinolin-6-yl)-3-phenylurea]	34.3

Query compound follows.
May I ask what cytotoxicity at 80 µM has been recorded for N#Cc1ccc(NC(=O)Nc2ccc3ncccc3c2)cc1 [JB011, 1-(4-cyanophenyl)-3-(quinolin-6-yl)urea] ?
16.4

----------
- test_target: NLRP3 inflammasome (Mus musculus, UniProt Q8R4B8)
- Construct: endogenous in cells; host or cells: primary mouse bone marrow-derived dendritic cells (BMDCs), LPS-primed
- assay_comment: IL-1β release from LPS-primed BMDCs (ELISA) as readout of NLRP3 inflammasome activation
- Type: cell-based
- measurement_parameters: compound 50 μM; LPS-primed BMDCs
Values of Average IL-1β greater than or equal to 0.07 ng/mL map to True; values below map to False.

These recorded examples may help you get a feel for the data.
compound	test_target	assigned_category
Cc1cc(NC(=O)Nc2ccccc2)ccc1N1CCCC1	NLRP3 inflammasome (Mus musculus, UniProt Q8R4B8)	True
CC(C)CC(NC(=O)Nc1cccc(N2CCNC2=O)c1)c1nc(-c2nnc[nH]2)no1 (stereo not drawn)	NLRP3 inflammasome (Mus musculus, UniProt Q8R4B8)	False
COc1cccc(NC(=O)N(C)Cc2nc(-c3cccnc3)no2)c1	NLRP3 inflammasome (Mus musculus, UniProt Q8R4B8)	True
O=C(NCc1nc(-c2cccs2)no1)Nc1ccccc1	NLRP3 inflammasome (Mus musculus, UniProt Q8R4B8)	True

Now look at this entry.
Hi, just wondering whether `COc1ccccc1NC(=O)NCc1nc(-c2cccnc2)no1` shows Average IL-1β of 0.07 ng/mL or higher.
True

----------
- test_target: NLRP3 inflammasome (Mus musculus, UniProt Q8R4B8)
- Construct: endogenous in cells; host or cells: primary mouse bone marrow-derived dendritic cells (BMDCs), LPS-primed
- assay_comment: IL-1β release from LPS-primed BMDCs (ELISA) as readout of NLRP3 inflammasome activation
- Assay type: cell-based
- measurement_parameters: 75 μM
Measured Average IL-1β by item
Just the number please, in ng/mL, no unit attached.

molecule	meas_value
Cc1c(F)cccc1CN1CCCC(Cc2nc(-c3ccc(NC(=O)Nc4ccccc4)cc3)no2)C1 (stereo not shown)	0.890

May I ask what Average IL-1β has been recorded for COc1ccc(NC(=O)Nc2ccc(-c3noc(CC4CCCN(Cc5cccc(F)c5C)C4)n3)cc2)cc1 (stereo not shown) ?
1.217

May I ask what Average IL-1β has been recorded for `O=C(Nc1cccc(Cl)c1)Nc1ccc([N+](=O)[O-])cc1Cl` ?
0.417

May I ask what Average IL-1β has been recorded for `O=C(Nc1ccccc1Cl)Nc1ccc([N+](=O)[O-])cc1Cl` ?
0.525

----------
- test_target: NLRP3 inflammasome (Mus musculus)
- Construct: endogenous in cells; host or cells: primary mouse bone marrow-derived dendritic cells (BMDCs), LPS-primed
- assay_comment: IL-1β release from LPS-primed BMDCs (ELISA) as readout of NLRP3 inflammasome activation
- Assay type: cell-based
- measurement_parameters: 20 μM
Measured Average IL-1β by item
Just the number please, in ng/mL, no unit attached.

Sample answers from the record:
smiles_entry	Average IL-1β / ng/mL
O=C(Nc1ccccc1)Nc1ccc2ncc(Br)cc2c1	0.971
O=C(Nc1ccccc1)Nc1ccc2ncccc2n1	0.045
COc1ccc(NC(=O)Nc2ccc3ncccc3c2)cc1	2.404

Query compound follows.
May I ask what Average IL-1β has been recorded for `N#Cc1ccc(NC(=O)Nc2ccc3ncccc3c2)cc1` ?
0.576

----------
- Tested on: BMDCs
- assay_comment: LDH release (lytic cell death, pyroptosis) from LPS-primed BMDCs
- Assay type: cell-based, mouse
- measurement_parameters: Mus musculus, BMDC, section 1.4; single replicates; 18.75 μM; read-out: LDH release (% of max.)
measured_parameter: cytotoxicity at 18.75 µM (%)
Just the number please, in %, no unit attached.

Sample answers from the record:
compound	cytotoxicity at 18.75 µM, %
O=C(Nc1ccccc1)Nc1ccc2ncccc2c1	71.4
COc1ccc(NC(=O)Nc2ccc(-c3noc(CC4CCCN(Cc5cccc(F)c5C)C4)n3)cc2)cc1 (centres unmarked)	50.4
Cc1c(F)cccc1CN1CCCC(Cc2nc(-c3ccc(NC(=O)Nc4ccccc4)cc3)no2)C1 (centres unmarked)	72

May I ask what cytotoxicity at 18.75 µM has been recorded for `O=C(Nc1cccc(Cl)c1)Nc1ccc([N+](=O)[O-])cc1Cl` ?
35.3

May I ask what cytotoxicity at 18.75 µM has been recorded for `O=C(Nc1ccccc1Cl)Nc1ccc([N+](=O)[O-])cc1Cl` ?
18.4

# credit: patent US20240277658A1
